# targetUnderTest: MPO (purified from human polynuclear leukocytes) (Homo sapiens)
# Construct: purified from human polynuclear leukocytes; purchased Calbiochem/EMD Biosciences; host or cells: human polynuclear leukocytes (natural source)
# Sequence (P05164 279-745 limits assumed): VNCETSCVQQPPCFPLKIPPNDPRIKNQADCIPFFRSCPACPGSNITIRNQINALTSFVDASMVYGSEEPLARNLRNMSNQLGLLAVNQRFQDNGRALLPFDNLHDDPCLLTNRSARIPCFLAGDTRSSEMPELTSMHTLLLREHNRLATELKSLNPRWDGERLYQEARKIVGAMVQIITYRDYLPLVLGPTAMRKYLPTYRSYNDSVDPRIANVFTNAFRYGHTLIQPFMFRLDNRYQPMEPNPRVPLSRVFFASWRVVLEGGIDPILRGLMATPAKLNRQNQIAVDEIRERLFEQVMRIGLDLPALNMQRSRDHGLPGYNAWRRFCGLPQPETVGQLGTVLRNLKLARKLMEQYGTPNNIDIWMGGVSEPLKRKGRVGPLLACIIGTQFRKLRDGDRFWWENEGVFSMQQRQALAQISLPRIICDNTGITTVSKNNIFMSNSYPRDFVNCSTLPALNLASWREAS
# Sequence (P05164 165-273 limits assumed): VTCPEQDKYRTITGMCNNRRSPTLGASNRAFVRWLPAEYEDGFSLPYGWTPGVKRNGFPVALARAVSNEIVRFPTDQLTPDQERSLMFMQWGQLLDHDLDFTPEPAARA
# assayComment: MPO Amplex Red Activity Assay
# Type: biochemical
# experimentalConditions: Table 1, 2 μM H2O2, pH 7.4
Where a name gives a salt, the structure may show the parent alone.
readoutKind: MPO kinact/Ki

compound="COCCn1c(-c2ccncc2OC)cc(=O)[nH]c1=S [Example 296]" targetundertest="MPO (purified from human polynuclear leukocytes) (Homo sapiens)" readoutkind="MPO kinact/Ki" reportedmeasurement="1570 1/s per M"
compound="COCCn1c(-c2ccccc2C)cc(=O)[nH]c1=S [Example 284]" targetundertest="MPO (purified from human polynuclear leukocytes) (Homo sapiens)" readoutkind="MPO kinact/Ki" reportedmeasurement="1470 1/s per M"
compound="COc1ccc(-c2cc(=O)[nH]c(=S)n2Cc2ccccc2)c(OC)c1 [Example 228]" targetundertest="MPO (purified from human polynuclear leukocytes) (Homo sapiens)" readoutkind="MPO kinact/Ki" reportedmeasurement="615 1/s per M"
compound="COc1ccc(-c2cc(=O)[nH]c(=S)n2CCOC(C)=O)c(OC)c1 [Example 222]" targetundertest="MPO (purified from human polynuclear leukocytes) (Homo sapiens)" readoutkind="MPO kinact/Ki" reportedmeasurement="9820 1/s per M"
compound="NCCOc1ccccc1-c1cc(=O)[nH]c(=S)n1CCO [Example 52, formate]" targetundertest="MPO (purified from human polynuclear leukocytes) (Homo sapiens)" readoutkind="MPO kinact/Ki" reportedmeasurement="33.4 1/s per M"

Q: Fill in reported MPO kinact/Ki for this entry: CCOC(=O)C(C)n1c(-c2ccc(OC)cc2OC)cc(=O)[nH]c1=S (stereo not drawn) [Example 239]
Ans: 1850 1/s per M

Q: Please give the documented MPO kinact/Ki of COCCn1c(-c2ccc(F)cc2OC)cc(=O)[nH]c1=S [Example 318]
Ans: 5240 1/s per M

Q: Please indicate MPO kinact/Ki recorded for COc1cc2ccccc2cc1-c1cc(=O)[nH]c(=S)n1CCN [Example 95, hydrochloride]
Ans: 15400 1/s per M

Q: Tell me measured MPO kinact/Ki for COc1ccc(Cl)cc1-c1cc(=O)[nH]c(=S)n1CCCN [Example 92, hydrochloride] please.
Ans: 22100 1/s per M

Value source: patent US9399626B2
